Ref: paper PMC2756588

# target_entity: T1, Abp1, P15891
# T1 sequence (P15891 535-592, looked up): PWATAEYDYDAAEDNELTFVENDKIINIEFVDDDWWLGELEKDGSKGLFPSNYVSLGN
# method_summary: SPOT array
# study_conditions: median of control spots 935
measurement_label: SPOT intensity

Worked cases, answers included:
binder=NMLSRPRLAKLPSIR measurement_label="SPOT intensity" measured_number=42
binder=NLKKRPPTAPQRKIS measurement_label="SPOT intensity" measured_number=564
binder=EAEEAAPQLPSRSSA measurement_label="SPOT intensity" measured_number=0
binder=NSMRPPLLIPAATTK measurement_label="SPOT intensity" measured_number=87
binder=AATTSTPPLPRRRAT measurement_label="SPOT intensity" measured_number=109

P = LFMKGTPEFPKSGFS
Q = WTQRRGPLVVYAEDN
Which one would you say has the larger SPOT intensity value: P , or Q ? Selection: enter the item's label.
P
(P: 85, Q: 0)
